Experiment: Hamster oral pharmacokinetic study
Assay type: in vivo, golden Syrian hamsters
Details: female, golden Syrian, plasma, single p.o. dose 50 mg/kg, read-out: AUC0–24 after single p.o. dose of 50 mg/kg
Method: […] The K2-EDTA anticoagulant was added to blood samples collected from 0.25 to 36 h, which were processed to plasma and stabilized with phosphoric acid (1% final) before analysis by LC-MS/MS. PK parameters were calculated using WinNonlin software (version 6.3).
Readout name: AUC(0-t) (ng·h/mL)
A number alone suffices; assume ng·h/mL.

Here is how some compounds turned out for AUC(0-t).
Cc1c(-c2ccccn2)coc1C(=O)Nc1ccc2c(c1)B(O)OC2 : 21000
O=C(Nc1ccc2c(c1)B(O)OC2)c1cn(CC(F)(F)F)nc1C(F)(F)F : 21000
O=C(Nc1ccc2c(c1)B(O)OC2)c1nnc(-c2ccccn2)o1 : 21000

# evaluate next
Specify AUC(0-t) for `Cc1c(C(=O)Nc2ccc3c(c2)B(O)OC3)nnn1-c1ccccn1` and stop.
120000
